Documented EC50 (read off the curve) across a set of binders
experimental-system: T1, recombinant human PD-L1/Fc fusion protein (human, UniProt Q9NZQ7 19-238)
T1 construct: also called hPD-L1 ECD-Fc; not shown: Fc part
T1 sequence (Q9NZQ7 19-238 limits assumed): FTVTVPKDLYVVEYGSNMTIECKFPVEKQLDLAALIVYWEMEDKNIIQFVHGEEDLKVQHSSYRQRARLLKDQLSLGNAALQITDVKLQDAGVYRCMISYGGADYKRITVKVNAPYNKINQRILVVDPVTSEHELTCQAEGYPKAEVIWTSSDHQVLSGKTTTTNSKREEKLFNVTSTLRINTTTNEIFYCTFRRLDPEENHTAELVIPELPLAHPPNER
measurement-notes: ELISA: human PD-L1/Fc coated (15 ng/well), serially diluted antibody, HRP-conjugated secondary antibody, TMB, A450
Method: ELISA assays were performed to assess the binding of selected antibodies to recombinant human PD-L1/Fc fusion proteins. Fifteen nanograms per well of human PD-L1/Fc proteins were coated on 96-well EIA microplate overnight at 4° C. After blocking with 5% skim milk, serially diluted antibodies were added and incubated at RT for 1 hour. […] TMB was added to the wells, and following incubation, the reaction was stopped, and HRP activity was measured by monitoring the increase in absorbance at 450 nm.
measured-attribute: EC50 (read off the curve)

>>> result("PL1 (full-length, N297A mutant human IgG1) (antibody, V domains shown) VH: QIQLVQSGAEVKKPGSSVKVSCKASGGTFSSYAISWVRQAPGQGLEWMGRIIPILGIANYAQKFQGRVTITAGESTSTAYMELSSLRSEDTAVYYCAREGSSGWLGVLDYWGQGTLVTVSS VL: QAVLTQPSSVSGAPGQRVTISCTGSSSNVGAGYDVHWYQQLPGTAPKLLIYGNSNRPSGVPDRFSGSKSGTSASLAITGLQAEDEADYYCQSYDSSLSGWVFGGGTKLTVLG")
"~0.004 µg/mL"
>>> result("PL3 (full-length, N297A mutant human IgG1) (antibody, V domains shown) VH: QVQLVQSGAEVKKPGSSVKVSCKASGGTFSSYTISWVRQAPGQGLEWMGRIIPILGIANYAQKFQGRVTITADKSTSTAYMELSSLRSEDTAVYYCARSRDGYSFGAFDIWGQGTLVTVSS VL: QSVVTQPPPVSGAPGQRVTISCTGSSSNIGAGYDVHWYQQLPGTAPKLLIYGNSNRPSGVPDRFSGSKSGTSASLAITGLQAEDEADYYCQSYDSSLSAPVVFGGGTKLTVLG")
"~0.02 µg/mL"
>>> result("PL12 (full-length, N297A mutant human IgG1) (antibody, V domains shown) VH: QVQLVQSGAEVKKPGSSVKVSCKASGGTFSSYAISWVRQAPGQGLEWMGRIIPILGIANYAQKFQGRVTITADKSTSTAYMELSSLRSEDTAVYYCARGIGSYSFGAFDIWGQGTMVTVSS VL: QSVLTQPPSVSGAPGQRVTISCTRSSSNIGAGHDVHWYQQLPGTAPKLLIYGNSNRPSGVPDRFSGSKSGTSASLAITGLQAEDGADYYCQSYDSSLTGVVFGGGTKLTVLG")
"~0.03 µg/mL"
>>> result("PL2 (full-length, N297A mutant human IgG1) (antibody, V domains shown) VH: EVQLVQSGGGLVKPGGSLRLSCAASGFTFSSYTMNWVRQAPGKGLEWVSSISSGSDYLYYADSVKGRFTISRDNAKNSLYLQMNSLRAEDTAVYYCARNELRWYPQAGAFDIWGQGTMVTVSS VL: QSVVTQPPSMSAAPGQNVTISCSGSSSYIESSYVSWYQQLPGTAPRLLIYDDDMRPSGIPDRFSGSKSGTSATLAITGLQTGDEADYYCEIWDSGLGGVFGGGTKLTVLS")
"~0.009 µg/mL"

Measured values drawn from patent US20190225691A1 for this set.
